Hey, just so you know, these numbers are from patent US7253176B1.

- System: Highly purified T cells
- Run description: T cell proliferation induced by anti-CD3 mAb+PMA (BrdU)
- Format: cell-based, human
- Measurement conditions: Homo sapiens, T-cell; anti-CD3 mAb+PMA pathway; read-out: IC50 aCD3
Threshold check on IC50: strictly below 90 µM is Fulfilled; on or above 90 µM is Not fulfilled.

[[record]]
molecule = "CC#Cn1c(=O)c2c(ncn2C)n(C)c1=O"
assigned_category = "Not fulfilled"

[[record]]
molecule = "Cn1cnc2c1c(=O)n(CCCC(=O)O)c(=O)n2C"
assigned_category = "Not fulfilled"

[[record]]
molecule = "Cn1c(=O)c2c(ncn2C)n(CC(C)(C)C)c1=O"
assigned_category = "Not fulfilled"

[[record]]
molecule = "Cn1cnc2c1c(=O)n(CCCCC(=O)O)c(=O)n2C"
assigned_category = "Not fulfilled"

[[record]]
molecule = "Cc1oncc1C(=O)Nc1ccc(C(F)(F)F)cc1 [Leflunomide, reference compound]"
assigned_category = "Fulfilled"

[[record]]
molecule = "CC#Cn1c(=O)c2c(ncn2C#CC)n(C#CC)c1=O"
assigned_category = "Fulfilled"


---

- System: Peripheral blood mononuclear cells (PBMC)
- Run description: Mixed lymphocyte reaction (MLR), [3H]-thymidine incorporation
- Assay type: cell-based, human
- Measurement conditions: Homo sapiens, PBMC; lowest concentration giving 50% suppression of the MLR
pIC50: −log10 of the molar value.
Consider the following compounds and their measured pIC50 readings.
Readout: pIC50

[[record]]
compound = "Cn1cnc2c1c(=O)n(CCCC(=O)O)c(=O)n2C [Compound 23, 1-(3-carboxypropyl)-3,7-dimethylxanthine]"
readout = "pIC50"
recorded_value = "< 3.70"

[[record]]
compound = "CC#Cn1c(=O)c2c(ncn2C)n(C#CC)c1=O [Compound 4, 1,3-dipropynyl-7-methylxanthine]"
readout = "pIC50"
recorded_value = "< 3.70"

[[record]]
compound = "Cn1cnc2c1c(=O)n(CCCCC(=O)O)c(=O)n2C [Compound 22, 1-(4-Carboxybutyl)-3,7-dimethylxanthine]"
readout = "pIC50"
recorded_value = "< 3.70"

[[record]]
compound = "CC#Cn1c(=O)c2c(ncn2C)n(C)c1=O [Compound 1, 1-propynyl-3,7-dimethylxanthine]"
readout = "pIC50"
recorded_value = "< 3.70"

[[record]]
compound = "Cn1c(=O)c2c(ncn2C)n(CC(C)(C)C)c1=O [Compound 68]"
readout = "pIC50"
recorded_value = 4.12

[[record]]
compound = "COc1c(C)c2c(c(O)c1C/C=C(\\C)CCC(=O)O)C(=O)OC2 [Moferil, Mycophenolic acid, reference compound]"
readout = "pIC50"
recorded_value = "> 6.30"

[[record]]
compound = "Cc1oncc1C(=O)Nc1ccc(C(F)(F)F)cc1 [Leflunomide, reference compound]"
readout = "pIC50"
recorded_value = 4.60

[[record]]
compound = "CC#Cn1c(=O)c2c(ncn2C#CC)n(C#CC)c1=O [Compound 5, 1,3,7-tripropynylxanthine]"
readout = "pIC50"
recorded_value = "< 3.70"


---

Consider the following compounds and their measured melting point readings.
Readout: melting point (°C)

[[record]]
smiles_code = "CC#Cn1c(=O)c2c(ncn2C#CC)n(C)c1=O"
readout = "melting point"
unit_string = "°C"
recorded_value = 177

[[record]]
smiles_code = "Cn1cnc2c1c(=O)n(CCCCC(=O)O)c(=O)n2C"
readout = "melting point"
unit_string = "°C"
recorded_value = 195

[[record]]
smiles_code = "Cn1c(=O)c2c(ncn2C)n(CC(C)(C)C)c1=O"
readout = "melting point"
unit_string = "°C"
recorded_value = 158

[[record]]
smiles_code = "CC#Cn1c(=O)c2c(ncn2C#CC)n(C#CC)c1=O"
readout = "melting point"
unit_string = "°C"
recorded_value = 155

[[record]]
smiles_code = "CC#Cn1c(=O)c2c(ncn2C)n(C#CC)c1=O"
readout = "melting point"
unit_string = "°C"
recorded_value = 172


---

- System: Highly purified T cells
- Run description: T cell proliferation induced by anti-CD28 mAb+PMA (BrdU)
- Type: cell-based, human
- Measurement conditions: Homo sapiens, T-cell; anti-CD28 mAb+PMA pathway; read-out: IC50 aCD28
- Procedure: Various models may be used for testing an immunosuppressive effect. In vivo, for example, different transplantation models are available. […] Usually activation is measured via lymphocyte proliferation. […] Highly purified T cells (10^6/ml) were stimulated by immobilized anti-CD3 or anti-CD28 mAb in the presence of PMA. […] The optical density (OD) was measured by a Behring EL311 place reader at 450 nm (reference wavelength: 690 μm). […]
Readout: IC50

[[record]]
compound = "Cn1cnc2c1c(=O)n(CCCCC(=O)O)c(=O)n2C"
readout = "IC50"
recorded_value = "> 200 µM"

[[record]]
compound = "CC#Cn1c(=O)c2c(ncn2C#CC)n(C#CC)c1=O"
readout = "IC50"
recorded_value = "> 200 µM"

[[record]]
compound = "Cn1cnc2c1c(=O)n(CCCC(=O)O)c(=O)n2C"
readout = "IC50"
recorded_value = "> 200 µM"

[[record]]
compound = "Cn1c(=O)c2c(ncn2C)n(CC(C)(C)C)c1=O"
readout = "IC50"
recorded_value = "120 µM"

[[record]]
compound = "Cc1oncc1C(=O)Nc1ccc(C(F)(F)F)cc1 [Leflunomide, reference compound]"
readout = "IC50"
recorded_value = "20 µM"

[[record]]
compound = "CC#Cn1c(=O)c2c(ncn2C)n(C#CC)c1=O"
readout = "IC50"
recorded_value = "> 200 µM"

[[record]]
compound = "CC#Cn1c(=O)c2c(ncn2C)n(C)c1=O"
readout = "IC50"
recorded_value = "> 200 µM"

